# Tested on: TAG
# measurement.protocol: TAG lipid buildup inhibition with viability readout – cell-based, panel, Nile Red and DAPI fluorescence, H9c2, dose response (AID 651630);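 further: cells exposed to compound overnight before fixation and staining; hits lower the Nile Red lipid signal and are scored as TAG inhibitors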
# assay.setup: H9c2 cells, Nile Red TAG fluorescence, oleic acid, mean of runs
Activity calls are given as the source filed them.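 How the source made its calls: active means lipid-stain IC50 at or below a set limit, with nuclear-stain toxicity IC50 at least five times higher; inactive means the rest.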
Classes used: active, inactive

| compound | test.target | class.assignment |
| --- | --- | --- |
| Cc1onc(-c2ccc(Cl)cc2Cl)c1-c1csc(N/N=C/c2ccccc2)n1 | TAG | inactive |
| O=C(Nc1cccc(-c2csc(Nc3ccc(Cl)cc3)n2)c1)c1cccc(C(F)(F)F)c1 | TAG | inactive |
| COc1cc(C2C3=C(COC3=O)Oc3cc4c(cc32)OCO4)ccc1O (stereo not drawn) | TAG | inactive |
| COc1ccc(-c2sc3cc4c(cc3c2C#Cc2ccc(N)cc2)OCO4)cc1 | TAG | inactive |
| Cc1cc(NC(=O)CSc2nc3ccccc3c(=O)n2C2CCCC2)no1 | TAG | active |
| O=C1Nc2ccc(Br)cc2/C1=N\N=C\C1=C(N2CCOCC2)C(=C/c2ccccc2)/CC1 | TAG | active |
| c1cc(C2CCCCC2)ccc1Oc1nc(N2CCOCC2)nc(N2CCOCC2)n1 | TAG | inactive |
| CCOc1c(Br)cc(CNC2CCCCCCC2)cc1OC | TAG | inactive |
| Cc1ccc(C(=O)Nc2cc(C)c(OCC(=O)N3CCOCC3)c(C)c2)cc1 | TAG | inactive |
| Cc1onc(NC(=O)c2ccc([N+](=O)[O-])o2)c1Br | TAG | inactive |
| COC(=O)C1=C(C)N(Cc2ccccc2)C(=NCC(C)C)N[C@H]1c1cccc(F)c1 | TAG | inactive |
| Cc1ccccc1NC(=O)CSc1nc2ccc(Nc3nc(N4CCOCC4)nc(N4CCOCC4)n3)cc2s1 | TAG | active |
| COc1cc(C#Cc2c(-c3cncn3C)n(C)c3ccc(-c4ccc5[nH]ccc5c4)cc23)cc(OC)c1 | TAG | active |
| COC(=O)c1c(NC(NC(=O)C(C)(C)C)C(Cl)(Cl)Cl)sc2c1CCC2 (stereo not drawn) | TAG | active |
| CN(C)CCCn1c(SCC(=O)Nc2nc(-c3cccc(Br)c3)cs2)nc2ccccc2c1=O | TAG | active |
| O=C(Nc1ccc(-c2csc(Nc3cccc(C(F)(F)F)c3)n2)cc1)c1cccc(C(F)(F)F)c1 | TAG | active |
| Oc1cccc2cc(-c3ccncc3)cnc12 | TAG | inactive |
| CCc1nc(C)c(C(=O)N2CCCC(C(=O)Nc3cccc(-c4cccc(C)c4)c3)C2)o1 (stereo not drawn) | TAG | inactive |
| Cc1nn(-c2cccc(Cl)c2)c2nc(-c3ccncc3)cc(C(=O)N3CCOCC3)c12 | TAG | inactive |
| CCOC(=O)[C@H]1[C@H]2COc3ccc(Br)cc3[C@@H]2N2C(=O)c3cc(Br)ccc3NC(=O)[C@@]12C | TAG | inactive |
| CCCSc1nc(SCC(=O)NCc2ccccc2)c2c3c(sc2n1)COC(C)(CC)C3 (stereo not drawn) | TAG | inactive |
| CC(=O)OCC(=O)[C@@]12OC3(CCCC3)O[C@@H]1C[C@H]1[C@@H]3CCC4=CC(=O)C=C[C@]4(C)[C@@]3(F)[C@@H](O)C[C@@]12C | TAG | active |
| Cc1cccc(C(=O)N[C@H](C(=O)Nc2ncc(C)s2)C(C)C)c1 | TAG | active |
| Clc1cccc(Nc2nc(-c3ccncc3)cs2)c1 | TAG | inactive |
| CCc1ccc(-c2nc(C(N)=O)c3[nH]c(=O)n(-c4ccccc4OC)c3n2)cc1 | TAG | active |
| COc1ccc(C(C(=O)NC(C)(C)C)N(Cc2cccs2)C(=O)CCC(=O)Nc2cc(C)on2)cc1 (stereo not drawn) | TAG | active |
| O=C(NCc1nnnn1-c1ccc(F)cc1)c1ccc([N+](=O)[O-])o1 | TAG | inactive |
| COc1cc2c(cc1OC)C(C)N(C(=O)c1cc3c(C)cc(C)cc3[nH]1)CC2 (stereo not drawn) | TAG | active |
| Cc1ccc(Nc2nc(OC(C(F)(F)F)C(F)(F)F)nc(N3CCOCC3)n2)cc1 | TAG | active |
| Cc1ccc(-c2cc(C(F)F)n3ncc(C(=O)Nc4c(C)nn(Cc5c(Cl)cccc5Cl)c4C)c3n2)cc1 | TAG | inactive |
| CCOc1ccc(S(=O)(=O)NCc2ccccn2)cc1NC(=O)c1ccccc1 | TAG | inactive |
| CC(C)=CCC/C(C)=C/CNC(=O)C[C@H]1C[C@H](C(=O)N2CCCCC2)[C@@]2(CCc3ccccc3)c3[nH]c4cc(-c5ccco5)ccc4c3CCN2C1=O | TAG | active |
| CCOC(=O)C1=C(C)N(C[C@@H]2CC[C@@H](Cc3ccc(-c4ccccc4)cc3)O2)C(=O)NC1c1cccc2ccccc12 (stereo partly drawn) | TAG | active |
| Cc1ccc(-c2nn3c(C)nnc3c3ccccc23)cc1S(=O)(=O)NC(C)c1ccccc1 (stereo not drawn) | TAG | inactive |
| COc1cc(-c2cc3nc(NCCOc4ccccc4)ccn3n2)cc(OC)c1OC | TAG | inactive |
| COc1ccccc1-c1cc(NC=O)c2ncc(-c3cccc(C(=O)N(C)C)c3)n2c1 | TAG | inactive |
| CC1(c2ccccc2)CC(C)(C)N(C(=O)c2cc([N+](=O)[O-])cc([N+](=O)[O-])c2)c2ccccc21 (stereo not drawn) | TAG | active |
| COc1ccccc1N1CCN(CC(=O)Nc2cc(C)nn2-c2nc(C)cc(C)n2)CC1 | TAG | inactive |
